Target: CD80-CD28 interaction (Homo sapiens, UniProt P33681)
Sequence (P33681 35-242 limits assumed): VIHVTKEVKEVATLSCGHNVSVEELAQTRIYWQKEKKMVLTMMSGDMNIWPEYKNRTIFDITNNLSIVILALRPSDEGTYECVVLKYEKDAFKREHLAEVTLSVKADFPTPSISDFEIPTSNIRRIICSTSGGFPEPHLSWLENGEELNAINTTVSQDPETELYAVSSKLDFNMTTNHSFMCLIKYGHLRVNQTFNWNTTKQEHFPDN
Assay: Homogenous Time Resolved Fluorescence (HTRF) assay, cell free
Format: binding
Details: cell free HTRF assay; concentration series 100 μM-1.7 nM; 4 hours at room temperature; read-out: Activity (EC50 in the HTRF assay)
Recorded measurements of EC50, one per entry

Consider the following illustrative entries.
>  <compound>
O=C(NC1CCCC1)c1ccc(-n2[nH]c3c(nnc4c(F)cccc43)c2=O)cc1 [Example 425]

>  <tested-system>
CD80-CD28 interaction (Homo sapiens, UniProt P33681)

>  <EC50>
< 1 µM

$$$$
>  <compound>
O=C(Nc1ccc(-n2[nH]c3c(nnc4ccccc43)c2=O)cc1)NC1Cc2ccccc2C1 [Example 226]

>  <tested-system>
CD80-CD28 interaction (Homo sapiens, UniProt P33681)

>  <EC50>
> 10 µM

$$$$
>  <compound>
CCCCN(CCCC)CCCNC(=O)c1ccc(-n2[nH]c3c(nnc4ccc(F)cc43)c2=O)cc1 [Example 329]

>  <tested-system>
CD80-CD28 interaction (Homo sapiens, UniProt P33681)

>  <EC50>
< 1 µM

$$$$
>  <compound>
CSCCCNC(=O)c1ccc(-n2[nH]c3c(nnc4ccccc43)c2=O)cc1 [Example 274]

>  <tested-system>
CD80-CD28 interaction (Homo sapiens, UniProt P33681)

>  <EC50>
< 1 µM

$$$$
>  <compound>
CN1CCC(NC(=O)c2ccc(-n3[nH]c4c(nnc5cccc(F)c54)c3=O)cc2)CC1 [Example 391]

>  <tested-system>
CD80-CD28 interaction (Homo sapiens, UniProt P33681)

>  <EC50>
< 1 µM

$$$$

Tell me measured EC50 for O=C(NCCc1ccccc1)c1ccc(-n2[nH]c3c(nnc4ccccc43)c2=O)cc1 [Example 270] please.
> 10 µM

Tell me measured EC50 for O=C(NCCc1cccc(F)c1)c1ccc(-n2[nH]c3c(nnc4c(F)cccc43)c2=O)cc1 [Example 373] please.
1 to 10 µM

Tell me measured EC50 for O=C(NCCNc1ccc([N+](=O)[O-])cn1)Nc1ccc(-n2[nH]c3c(nnc4ccccc43)c2=O)cc1 [Example 302] please.
> 10 µM

Tell me measured EC50 for COCCCNC(=O)c1ccc(-n2[nH]c3c(nnc4ccccc43)c2=O)cc1 [Example 247] please.
< 1 µM

Tell me measured EC50 for CC(C)NCCCNC(=O)c1ccc(-n2[nH]c3c(nnc4ccc(F)cc43)c2=O)cc1 [Example 385] please.
< 1 µM

Tell me measured EC50 for CN(CCNC(=O)Nc1ccc(-n2[nH]c3c(nnc4ccccc43)c2=O)cc1)C(=O)OC(C)(C)C [Example 265] please.
> 10 µM

Tell me measured EC50 for CCC(COCc1ccccc1)NC(=O)c1ccc(-n2[nH]c3c(nnc4ccccc43)c2=O)cc1 (centres unmarked) [Example 276] please.
1 to 10 µM

This collection of values is drawn from patent US8309552B2.
